Target: human CD33 variant Y50H (human, UniProt P20138 18-364)
Sequence (P20138 18-364 Y50H limits assumed): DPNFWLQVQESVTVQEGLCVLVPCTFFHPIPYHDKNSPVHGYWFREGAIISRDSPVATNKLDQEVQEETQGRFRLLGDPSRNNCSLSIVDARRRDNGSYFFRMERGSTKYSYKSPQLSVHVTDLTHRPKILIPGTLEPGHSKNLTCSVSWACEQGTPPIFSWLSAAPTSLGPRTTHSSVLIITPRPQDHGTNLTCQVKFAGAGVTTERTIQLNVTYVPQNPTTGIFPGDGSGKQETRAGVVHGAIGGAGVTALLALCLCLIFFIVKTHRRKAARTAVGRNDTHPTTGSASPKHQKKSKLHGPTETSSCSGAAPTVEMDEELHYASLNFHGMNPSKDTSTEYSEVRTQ
Experiment: flow cytometry, IgG on cells expressing the mutant
measure_name: Mean % WT Binding

Solved cases below.
binder	measure_name	obs_value
Refmab #3 (antibody, human IgG1, V domains shown, Tested in IgG format; human IgG1 Fc silent (PG-LALA)) VH: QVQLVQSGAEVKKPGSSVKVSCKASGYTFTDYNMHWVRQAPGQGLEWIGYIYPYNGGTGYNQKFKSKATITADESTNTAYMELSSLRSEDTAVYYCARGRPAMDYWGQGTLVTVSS VL: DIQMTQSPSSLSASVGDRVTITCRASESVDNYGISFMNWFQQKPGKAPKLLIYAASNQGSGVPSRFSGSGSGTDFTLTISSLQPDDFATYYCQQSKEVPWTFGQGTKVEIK	Mean % WT Binding	111 % of WT
Refmab #1 (antibody, human IgG1, V domains shown, Tested in IgG format; human IgG1 (Absolute Antibody hP67.6, Cat. No. Ab00283-10.0); also called hP67.6) VH: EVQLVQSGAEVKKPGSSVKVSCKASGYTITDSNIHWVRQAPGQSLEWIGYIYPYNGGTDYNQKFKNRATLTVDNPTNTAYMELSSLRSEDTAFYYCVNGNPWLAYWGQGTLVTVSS VL: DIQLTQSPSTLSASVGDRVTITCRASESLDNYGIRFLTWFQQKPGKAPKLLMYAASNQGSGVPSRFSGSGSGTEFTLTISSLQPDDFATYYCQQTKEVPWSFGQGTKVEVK	Mean % WT Binding	103 % of WT
Refmab #2 (antibody, human IgG1, V domains shown, Tested in IgG format; human IgG1 Fc silent (PG-LALA)) VH: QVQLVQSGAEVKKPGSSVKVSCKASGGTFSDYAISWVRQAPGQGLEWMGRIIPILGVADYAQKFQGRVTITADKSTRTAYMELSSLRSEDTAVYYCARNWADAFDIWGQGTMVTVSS VL: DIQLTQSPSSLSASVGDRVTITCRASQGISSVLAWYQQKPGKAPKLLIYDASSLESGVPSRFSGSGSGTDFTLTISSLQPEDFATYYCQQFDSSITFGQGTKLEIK	Mean % WT Binding	119 % of WT

Alright, here's another binder for you.
Recorded Mean % WT Binding of Refmab #4 (antibody, human IgG1, V domains shown, Tested in IgG format; human IgG1 Fc silent (PG-LALA)) VH: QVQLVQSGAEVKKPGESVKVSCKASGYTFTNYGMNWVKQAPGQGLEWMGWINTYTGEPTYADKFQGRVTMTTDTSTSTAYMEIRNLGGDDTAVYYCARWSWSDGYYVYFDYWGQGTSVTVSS VL: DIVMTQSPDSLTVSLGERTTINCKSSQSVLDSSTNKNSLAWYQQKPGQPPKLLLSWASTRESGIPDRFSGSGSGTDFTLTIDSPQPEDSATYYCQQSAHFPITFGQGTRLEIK , please. 2 % of WT

meta.source: patent US20260242735A1
